# assay.info: inhibitors of mutant huntingtin aggregation, primary screen, imaging, exon1htt(103Q)mCFP cells, high-content imaging (AID 483);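 further: compound exposure lasted 3 days before fixation; percent of the per-plate median nuclei count of sample wells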
# reported.conditions: exon1htt(103Q)mCFP cell line, aggregate imaging, at 2 µM; measured here: cell count, toxicity
experimental.endpoint: nuclei count (%)
Answers are plain numbers, in %.

Quick one: give me nuclei count for each item below, same order please.
1. NS(=O)(=O)c1cc2c(cc1Cl)NC=NS2(=O)=O
2. CCCOc1ccc(N2C(=O)C3ON(c4ccccc4)C(c4ccc(O)c(OC)c4)C3C2=O)cc1 (stereo unspecified)
3. CC(=O)c1c(OCC(=O)O)ccc2c(C)cc(=O)oc12
4. CCCCCC(=O)O[C@]1(C(C)=O)CC[C@H]2[C@@H]3CCC4=CC(=O)CC[C@]4(C)[C@H]3CC[C@@]21C
5. CN(C=C1C(=O)CC(C)(C)CC1=O)CCN1CCNCC1

Found:
1. 92.2
2. 110
3. 97.8
4. 104
5. 97.1

For every item in the list below, what is its measured nuclei count?
1. CCC1(c2ccccc2)C(=O)NCNC1=O
2. Cc1cccc(OCC(=O)N2CCC(N3CCCCCC3)CC2)c1
3. COc1cc(NC(=O)NC(C)(C(F)(F)F)C(F)(F)F)cc(OC)c1OC
4. Cc1c(C2Nc3ccccc3NC3=C2C(=O)CC(C)(C)C3)cnn1C (stereo unspecified)
5. Oc1ccc(/C=C/c2cc(O)cc(O)c2)cc1
6. CCOC(=O)C1=C(N)c2ccccc2CC1C(C)C (stereo unspecified)

Found:
103
97.5
83
115
98.6
108
